Biological target: Calcitonin receptor (Homo sapiens, UniProt P30988); further: in other assays of this panel Not Active means under 50% inhibition at 10 µM
Sequence (P30988 whole entry): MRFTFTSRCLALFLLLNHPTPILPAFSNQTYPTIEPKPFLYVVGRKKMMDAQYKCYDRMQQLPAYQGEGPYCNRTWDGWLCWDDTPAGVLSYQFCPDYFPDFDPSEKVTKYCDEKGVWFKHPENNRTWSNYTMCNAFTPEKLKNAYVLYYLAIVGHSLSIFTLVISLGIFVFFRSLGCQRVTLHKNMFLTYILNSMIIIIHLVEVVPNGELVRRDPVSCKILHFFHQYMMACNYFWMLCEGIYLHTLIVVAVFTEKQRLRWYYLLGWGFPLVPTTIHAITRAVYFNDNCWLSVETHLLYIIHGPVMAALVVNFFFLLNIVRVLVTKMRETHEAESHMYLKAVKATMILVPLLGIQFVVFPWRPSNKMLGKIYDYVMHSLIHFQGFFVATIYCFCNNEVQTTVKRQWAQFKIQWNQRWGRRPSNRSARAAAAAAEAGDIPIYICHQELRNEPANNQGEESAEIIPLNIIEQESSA
Type: cell membranes, Membrane
Settings: t47d
endpointLabel: IC50

C[S+]([O-])c1ccc(-c2nc(-c3ccncc3)c(-c3ccc(F)cc3)[nH]2)cc1 (centres undefined)    Not Active
CCCCC1=NC2(CCCC2)C(=O)N1Cc1ccc(-c2ccccc2-c2nnn[nH]2)cc1    Not Active
COC(=O)Nc1nc2cc(C(=O)c3ccc(F)cc3)ccc2[nH]1    Not Active
CC(=O)OCC(=O)[C@@]12OC(C)(C)O[C@@H]1C[C@H]1[C@@H]3C[C@H](F)C4=CC(=O)C=C[C@]4(C)[C@@]3(F)[C@@H](O)C[C@@]12C [FLUOCINONIDE]    Not Active

meta.source: ChEMBL document CHEMBL1909046
